These entries and their values trace back to paper PMC10784415.

Assay: Toxicokinetics of infigratinib in juvenile rat plasma after oral gavage
Format: in vivo, Crl:WI(Han) rat
Conditions: female, Crl:WI(Han), rat, plasma, po, 0.1 mg/kg/day, AUC(0-t), Female rats, 0.1 mg/kg/day oral, PND 35
MEASURE_NAME: AUC(0-t) (ng·h/mL)

>  <SMILES_TEXT>
CCN1CCN(c2ccc(Nc3cc(N(C)C(=O)Nc4c(Cl)c(OC)cc(OC)c4Cl)ncn3)cc2)CC1

>  <MEASURE_NAME>
AUC(0-t)

>  <NUMERIC_READOUT>
1.4

$$$$

###

Assay: Toxicokinetics of infigratinib in juvenile rat plasma after oral gavage
Format: in vivo, Crl:WI(Han) rat
Settings: female, Crl:WI(Han), rat, plasma, po, 1 mg/kg/day, AUC(0-t), Female rats, 1.0 mg/kg/day oral, PND 23
MEASURE_NAME: AUC(0-t) (ng·h/mL)

>  <SMILES_TEXT>
CCN1CCN(c2ccc(Nc3cc(N(C)C(=O)Nc4c(Cl)c(OC)cc(OC)c4Cl)ncn3)cc2)CC1

>  <UOM>
ng·h/mL

>  <NUMERIC_READOUT>
73

$$$$

###

Test: Toxicokinetics of infigratinib in juvenile rat plasma after oral gavage
Format: in vivo, Crl:WI(Han) rat
Conditions: female, Crl:WI(Han), rat, plasma, po, 0.1 mg/kg/day, Cmax, Female rats, 0.1 mg/kg/day oral, PND 23

>  <SMILES_TEXT>
CCN1CCN(c2ccc(Nc3cc(N(C)C(=O)Nc4c(Cl)c(OC)cc(OC)c4Cl)ncn3)cc2)CC1

>  <Cmax, ng/mL>
0.78

$$$$

###

Experiment: Toxicokinetics of infigratinib in juvenile rat plasma after oral gavage
Assay type: in vivo, Crl:WI(Han) rat
Details: male, Crl:WI(Han), rat, plasma, po, 1 mg/kg/day, Tmax, Male rats, 1.0 mg/kg/day oral, PND 35
MEASURE_NAME: Tmax (h)

>  <COMPOUND>
CCN1CCN(c2ccc(Nc3cc(N(C)C(=O)Nc4c(Cl)c(OC)cc(OC)c4Cl)ncn3)cc2)CC1 [infigratinib]

>  <UOM>
h

>  <NUMERIC_READOUT>
3

$$$$

###

Experiment: Toxicokinetics of infigratinib in juvenile rat plasma after oral gavage
Type: in vivo, Crl:WI(Han) rat
Details: male, Crl:WI(Han), rat, plasma, po, 0.3 mg/kg/day, AUC(0-t), Male rats, 0.3 mg/kg/day oral, PND 12

>  <SMILES_TEXT>
CCN1CCN(c2ccc(Nc3cc(N(C)C(=O)Nc4c(Cl)c(OC)cc(OC)c4Cl)ncn3)cc2)CC1

>  <AUC(0-t) [ng·h/mL]>
149

$$$$

###

Assay: Toxicokinetics of infigratinib in juvenile rat plasma after oral gavage
Type: in vivo, Crl:WI(Han) rat
Conditions: female, Crl:WI(Han), rat, plasma, po, 0.3 mg/kg/day, Tmax, Female rats, 0.3 mg/kg/day oral, PND 35
MEASURE_NAME: Tmax (h)

>  <SMILES_TEXT>
CCN1CCN(c2ccc(Nc3cc(N(C)C(=O)Nc4c(Cl)c(OC)cc(OC)c4Cl)ncn3)cc2)CC1

>  <MEASURE_NAME>
Tmax

>  <NUMERIC_READOUT>
3

$$$$

###

Experiment: Toxicokinetics of infigratinib in juvenile rat plasma after oral gavage
Assay type: in vivo, Crl:WI(Han) rat
Conditions: male, Crl:WI(Han), rat, plasma, po, 0.1 mg/kg/day, T1/2, Male rats, 0.1 mg/kg/day oral, PND 7

>  <COMPOUND>
CCN1CCN(c2ccc(Nc3cc(N(C)C(=O)Nc4c(Cl)c(OC)cc(OC)c4Cl)ncn3)cc2)CC1 [infigratinib]

>  <half-life>
5.1 h

$$$$

###

Assay: Toxicokinetics of infigratinib in juvenile rat plasma after oral gavage
Type: in vivo, Crl:WI(Han) rat
Conditions: male, Crl:WI(Han), rat, plasma, po, 0.3 mg/kg/day, Tmax, Male rats, 0.3 mg/kg/day oral, PND 23
MEASURE_NAME: Tmax (h)

>  <SMILES_TEXT>
CCN1CCN(c2ccc(Nc3cc(N(C)C(=O)Nc4c(Cl)c(OC)cc(OC)c4Cl)ncn3)cc2)CC1

>  <NUMERIC_READOUT>
3

$$$$

###

Experiment: Toxicokinetics of infigratinib in juvenile rat plasma after oral gavage
Assay type: in vivo, Crl:WI(Han) rat
Conditions: female, Crl:WI(Han), rat, plasma, po, 1 mg/kg/day, T1/2, Female rats, 1.0 mg/kg/day oral, PND 12

>  <SMILES_TEXT>
CCN1CCN(c2ccc(Nc3cc(N(C)C(=O)Nc4c(Cl)c(OC)cc(OC)c4Cl)ncn3)cc2)CC1

>  <half-life (h)>
3.97

$$$$

###

Experiment: Toxicokinetics of infigratinib in juvenile rat plasma after oral gavage
Format: in vivo, Crl:WI(Han) rat
Details: male, Crl:WI(Han), rat, plasma, po, 0.3 mg/kg/day, Tmax, Male rats, 0.3 mg/kg/day oral, PND 7
MEASURE_NAME: Tmax

>  <MOLECULE>
CCN1CCN(c2ccc(Nc3cc(N(C)C(=O)Nc4c(Cl)c(OC)cc(OC)c4Cl)ncn3)cc2)CC1 [infigratinib]

>  <RESULT>
3 h

$$$$

###

Test: Toxicokinetics of infigratinib in juvenile rat plasma after oral gavage
Assay type: in vivo, Crl:WI(Han) rat
Settings: female, Crl:WI(Han), rat, plasma, po, 0.3 mg/kg/day, AUC(0-t), Female rats, 0.3 mg/kg/day oral, PND 7

>  <SMILES_TEXT>
CCN1CCN(c2ccc(Nc3cc(N(C)C(=O)Nc4c(Cl)c(OC)cc(OC)c4Cl)ncn3)cc2)CC1

>  <AUC(0-t) [ng·h/mL]>
183

$$$$

###

Experiment: Toxicokinetics of infigratinib in juvenile rat plasma after oral gavage
Format: in vivo, Crl:WI(Han) rat
Conditions: male, Crl:WI(Han), rat, plasma, po, 0.3 mg/kg/day, T1/2, Male rats, 0.3 mg/kg/day oral, PND 23
MEASURE_NAME: half-life (h)

>  <SMILES_TEXT>
CCN1CCN(c2ccc(Nc3cc(N(C)C(=O)Nc4c(Cl)c(OC)cc(OC)c4Cl)ncn3)cc2)CC1

>  <UOM>
h

>  <NUMERIC_READOUT>
4.37

$$$$

###

Experiment: Toxicokinetics of infigratinib in juvenile rat plasma after oral gavage
Type: in vivo, Crl:WI(Han) rat
Conditions: male, Crl:WI(Han), rat, plasma, po, 0.1 mg/kg/day, AUC(0-t), Male rats, 0.1 mg/kg/day oral, PND 7
MEASURE_NAME: AUC(0-t) (ng·h/mL)

>  <SMILES_TEXT>
CCN1CCN(c2ccc(Nc3cc(N(C)C(=O)Nc4c(Cl)c(OC)cc(OC)c4Cl)ncn3)cc2)CC1

>  <UOM>
ng·h/mL

>  <NUMERIC_READOUT>
31.9

$$$$

###

Assay: Toxicokinetics of infigratinib in juvenile rat plasma after oral gavage
Assay type: in vivo, Crl:WI(Han) rat
Settings: female, Crl:WI(Han), rat, plasma, po, 0.3 mg/kg/day, AUC(0-t), Female rats, 0.3 mg/kg/day oral, PND 23
MEASURE_NAME: AUC(0-t) (ng·h/mL)

>  <SMILES_TEXT>
CCN1CCN(c2ccc(Nc3cc(N(C)C(=O)Nc4c(Cl)c(OC)cc(OC)c4Cl)ncn3)cc2)CC1

>  <UOM>
ng·h/mL

>  <NUMERIC_READOUT>
18.8

$$$$

###

Assay: Toxicokinetics of infigratinib in juvenile rat plasma after oral gavage
Format: in vivo, Crl:WI(Han) rat
Details: male, Crl:WI(Han), rat, plasma, po, 1 mg/kg/day, Tmax, Male rats, 1.0 mg/kg/day oral, PND 23

>  <SMILES_TEXT>
CCN1CCN(c2ccc(Nc3cc(N(C)C(=O)Nc4c(Cl)c(OC)cc(OC)c4Cl)ncn3)cc2)CC1

>  <Tmax (h)>
3

$$$$

###

Experiment: Toxicokinetics of infigratinib in juvenile rat plasma after oral gavage
Type: in vivo, Crl:WI(Han) rat
Conditions: female, Crl:WI(Han), rat, plasma, po, 0.3 mg/kg/day, T1/2, Female rats, 0.3 mg/kg/day oral, PND 7

>  <SMILES_TEXT>
CCN1CCN(c2ccc(Nc3cc(N(C)C(=O)Nc4c(Cl)c(OC)cc(OC)c4Cl)ncn3)cc2)CC1

>  <UOM>
h

>  <half-life>
4.26

$$$$

###

Test: Toxicokinetics of infigratinib in juvenile rat plasma after oral gavage
Type: in vivo, Crl:WI(Han) rat
Settings: female, Crl:WI(Han), rat, plasma, po, 0.3 mg/kg/day, Cmax, Female rats, 0.3 mg/kg/day oral, PND 7

>  <SMILES_TEXT>
CCN1CCN(c2ccc(Nc3cc(N(C)C(=O)Nc4c(Cl)c(OC)cc(OC)c4Cl)ncn3)cc2)CC1

>  <Cmax / ng/mL>
19.4

$$$$
